Here, each record is paired with measured koff data.
Molecular target: T1, recombinant monomeric human TIGIT-His (human, UniProt Q495A1 22-141)
T1 construct: also called hTIGIT; not shown: His tag
T1 sequence: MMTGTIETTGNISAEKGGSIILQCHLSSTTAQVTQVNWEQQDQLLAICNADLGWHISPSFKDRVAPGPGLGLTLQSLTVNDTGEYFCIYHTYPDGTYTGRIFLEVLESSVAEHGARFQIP
Assay: BLI (Octet QKe), antibody on AHC sensor, several concentrations of human TIGIT-His, 1:1 global fit, average
Numbers only; they are read as s⁻¹.

Known koff results, listed for orientation:
BINDER	MEASURED QUANTITY	RECORDED NUMBER
MAB18-IgG4 (antibody, V domains shown) VH: QVQLVQSGAEVKKPGASVKVSCKASGYTFPAYYMHWVRQAPGQGLEWMGIINPSLGLTSYARKFQGRVTMTRDTSTSTVYMELSSLRSEDTAVYYCARGGRTTWIGAFDIWGQGTMVTVSS VL: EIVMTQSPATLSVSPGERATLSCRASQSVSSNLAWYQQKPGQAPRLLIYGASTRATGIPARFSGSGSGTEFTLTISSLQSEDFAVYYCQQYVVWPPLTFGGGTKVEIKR	koff	0.00059
MAB15-IgG4 (antibody, V domains shown) VH: QVQLVQSGAEVKKPGASVKVSCKASGYTFREYYMHWVRQAPGQGLEWMGIINPSIGLTSYARKFQGRVTMTRDTSTSTVYMELSSLRSEDTAVYYCARGGRTTWIGAFDIWGQGTMVTVSS VL: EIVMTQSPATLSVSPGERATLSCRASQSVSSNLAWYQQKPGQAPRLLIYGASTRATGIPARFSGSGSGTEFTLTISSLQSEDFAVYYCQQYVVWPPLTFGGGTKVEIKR	koff	0.00066

**Q:** Look up koff of MAB20-IgG4 (antibody, V domains shown) VH: QVQLVQSGAEVKKPGASVKVSCKASGYTFTSHYMGWVRQAPGQGLEWVGIINPSMGATSYAQKFQGRVTMTRDTSTSTVYMELSSLRSEDTAVYYCARLHVSGSYYPAYLDYWGQGTMVTVSS VL: EIVMTQSPATLSVSPGERATLSCRASQSVSSNLAWYQQKPGQAPRHLIYGASTRATGIPARFSGSGSGTEFTLTISSLQSEDFAVYYCQQYIVFPWTFGGGTKVEIKR and report it.
**A:** 0.00038
